targetDesc: T1, recombinant human IL-23 (human, UniProt Q9NPF7 20-189; P29460 23-328)
T1 construct: also called hIL-23
T1 sequence 1: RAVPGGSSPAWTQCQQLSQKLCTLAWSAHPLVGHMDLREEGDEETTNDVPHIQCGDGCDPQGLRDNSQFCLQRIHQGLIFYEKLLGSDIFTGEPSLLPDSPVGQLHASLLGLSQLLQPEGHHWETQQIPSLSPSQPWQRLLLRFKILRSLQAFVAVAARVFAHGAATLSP
T1 sequence 2: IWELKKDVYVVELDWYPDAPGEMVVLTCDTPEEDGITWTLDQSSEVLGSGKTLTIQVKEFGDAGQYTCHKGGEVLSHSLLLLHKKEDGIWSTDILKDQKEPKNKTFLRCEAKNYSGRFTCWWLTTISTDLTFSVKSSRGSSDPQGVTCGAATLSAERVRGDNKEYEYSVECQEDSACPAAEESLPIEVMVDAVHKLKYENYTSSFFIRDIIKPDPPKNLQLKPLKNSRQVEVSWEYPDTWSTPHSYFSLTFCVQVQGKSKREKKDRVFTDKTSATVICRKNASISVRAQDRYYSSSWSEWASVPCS
experimentSummary: SPR (Biacore T100), purified antibody captured on anti-human IgG, IL-23 analyte, 1:1 model
Known kon of a selection of binders

binder	resultUnits	kon
A7M3 (antibody, human IgG1, kappa, V domains shown, Full length chains) VH: QVQLVQSGAEVKKPGSSVKVSCKASGYTFTSYGITWVRQAPGQGLEWMGEDYPRSGNTYYNEKFKGRVTITADKSTSTAYMELSSLRSEDTAVYYCARSEFISTVVAPYYYALDYWGQGTLVTVSS VL: DIVMTQSPDSLAVSLGERATINCKASKKVTIFGSTSALHWYQQKPGQPPKLIYNGAKLESGVPDRFSGSGSGTDFTLTISSLQAEDVAVYYCLQNKEVPYTFGGGTKVEIKR	M⁻¹ s⁻¹	1.01e+06
A3M0 (antibody, human IgG1, kappa, V domains shown, Full length chains; also called humanized mAb A3M0) VH: QVQLVQSGAEVKKPGSSVKVSCKASGYTFTSYGITWVRQAPGQGLEWMGENYPRSGNTYYNEKFKGRVTITADKSTSTAYMELSSLRSEDTAVYYCARSEFISTVVAPYYYALDYWGQGTLVTVSS VL: DIVMTQSPDSLAVSLGERATINCKASKKVTIFGSISALHWYQQKPGQPPKLIYNGAKLESGVPDRFSGSGSGTDFTLTISSLQAEDVAVYYCLQNKEVPYTFGGGTKVEIKR	M⁻¹ s⁻¹	1.22e+06
A8M3 (antibody, V domains shown) VH: QVQLVQSGAEVKKPGSSVKVSCKASGYTFTSYGITWVRQAPGQGLEWMGEDYPRSGNTYYNEKFKGRVTITADKSTSTAYMELSSLRSEDTAVYYCARAEFISTVVAPYYYALDYWGQGTLVTVSS VL: DIVMTQSPDSLAVSLGERATINCKASKKVTIFGSTSALHWYQQKPGQPPKLIYNGAKLESGVPDRFSGSGSGTDFTLTISSLQAEDVAVYYCLQNKEVPYTFGGGTKVEIK	M⁻¹ s⁻¹	1.67e+06
